target: IKZF2 (Homo sapiens (Human), UniProt Q96SW2+Q9UKS7); experiment: In vitro IKZF2 HiBit Assay (HEK293T Flp-in-HiBiT cells); format: cell-based; conditions: HEK293T Flp-in-HiBiT cells, 6 hrs incubation; read-out: IKZF2 HiBit DC50
Sequence (Q9UKS7 whole entry): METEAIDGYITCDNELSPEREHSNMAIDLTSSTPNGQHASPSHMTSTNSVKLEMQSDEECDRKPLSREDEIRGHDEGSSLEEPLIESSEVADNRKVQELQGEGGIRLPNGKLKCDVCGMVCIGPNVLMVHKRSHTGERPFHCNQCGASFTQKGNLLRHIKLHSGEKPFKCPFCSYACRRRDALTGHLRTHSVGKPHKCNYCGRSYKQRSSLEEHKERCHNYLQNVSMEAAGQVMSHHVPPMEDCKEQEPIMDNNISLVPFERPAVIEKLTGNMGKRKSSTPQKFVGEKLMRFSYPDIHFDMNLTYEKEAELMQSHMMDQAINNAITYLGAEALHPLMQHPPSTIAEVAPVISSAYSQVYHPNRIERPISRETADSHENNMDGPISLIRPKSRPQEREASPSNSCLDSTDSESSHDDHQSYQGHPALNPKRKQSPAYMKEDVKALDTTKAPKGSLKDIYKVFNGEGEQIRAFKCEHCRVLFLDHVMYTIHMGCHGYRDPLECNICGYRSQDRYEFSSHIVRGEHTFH
Sequence (Q96SW2 whole entry): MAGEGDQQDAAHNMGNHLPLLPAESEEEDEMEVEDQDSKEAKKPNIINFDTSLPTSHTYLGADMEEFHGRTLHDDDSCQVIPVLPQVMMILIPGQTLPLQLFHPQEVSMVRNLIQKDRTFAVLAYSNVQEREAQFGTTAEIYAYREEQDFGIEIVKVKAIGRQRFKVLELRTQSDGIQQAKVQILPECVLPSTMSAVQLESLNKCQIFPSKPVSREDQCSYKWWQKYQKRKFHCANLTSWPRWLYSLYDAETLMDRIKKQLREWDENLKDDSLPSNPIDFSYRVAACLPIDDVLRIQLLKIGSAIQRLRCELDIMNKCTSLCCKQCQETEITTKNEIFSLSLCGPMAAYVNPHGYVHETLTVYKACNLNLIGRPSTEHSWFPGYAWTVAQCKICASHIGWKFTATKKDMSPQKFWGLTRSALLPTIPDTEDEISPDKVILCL
Sequence (Q16531 2-1140 partner): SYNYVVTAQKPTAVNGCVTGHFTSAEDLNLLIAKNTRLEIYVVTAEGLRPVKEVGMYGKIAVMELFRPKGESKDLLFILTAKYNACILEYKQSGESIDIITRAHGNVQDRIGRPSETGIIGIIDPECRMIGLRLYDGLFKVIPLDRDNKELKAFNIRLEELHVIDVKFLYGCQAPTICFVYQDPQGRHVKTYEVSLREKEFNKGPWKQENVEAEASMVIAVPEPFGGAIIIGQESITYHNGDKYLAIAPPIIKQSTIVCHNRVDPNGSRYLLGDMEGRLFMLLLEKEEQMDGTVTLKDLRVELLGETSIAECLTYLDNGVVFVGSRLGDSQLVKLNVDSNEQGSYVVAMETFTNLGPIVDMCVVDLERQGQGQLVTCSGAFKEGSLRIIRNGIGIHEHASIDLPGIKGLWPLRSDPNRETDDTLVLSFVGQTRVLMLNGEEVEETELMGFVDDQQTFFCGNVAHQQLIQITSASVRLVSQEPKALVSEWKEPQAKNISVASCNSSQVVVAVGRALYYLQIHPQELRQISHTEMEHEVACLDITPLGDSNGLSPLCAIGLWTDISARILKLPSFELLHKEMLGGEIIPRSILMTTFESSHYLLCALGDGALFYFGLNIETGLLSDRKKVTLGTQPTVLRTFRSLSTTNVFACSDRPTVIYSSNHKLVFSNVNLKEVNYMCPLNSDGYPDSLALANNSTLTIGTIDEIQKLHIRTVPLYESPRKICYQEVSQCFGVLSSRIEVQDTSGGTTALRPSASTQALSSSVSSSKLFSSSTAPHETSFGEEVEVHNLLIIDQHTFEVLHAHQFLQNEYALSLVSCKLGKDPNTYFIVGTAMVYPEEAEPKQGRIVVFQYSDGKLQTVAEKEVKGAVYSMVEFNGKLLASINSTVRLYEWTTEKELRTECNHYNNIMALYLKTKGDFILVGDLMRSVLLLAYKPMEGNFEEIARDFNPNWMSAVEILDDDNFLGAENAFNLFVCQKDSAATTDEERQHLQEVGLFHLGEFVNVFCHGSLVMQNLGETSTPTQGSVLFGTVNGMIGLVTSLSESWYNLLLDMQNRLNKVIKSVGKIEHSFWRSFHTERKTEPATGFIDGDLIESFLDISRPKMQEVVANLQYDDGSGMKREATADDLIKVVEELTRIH
Property: DC50

Worked cases, DC50 given:
- Compound: "Cn1ccc2c(CN3CCC(n4ccnc4)CC3)cc(-c3ccc4c(c3)CN(C3CCC(=O)NC3=O)C4=O)nc21 (stereo not drawn)"
  Property: "DC50"
  Measured: "10 to 100 nM"
- Compound: "O=C1CCC(N2Cc3cc(-c4cc(CN5CCCC5)c5ccn(C6CS(=O)(=O)C6)c5n4)ccc3C2=O)C(=O)N1 (stereo not drawn)"
  Property: "DC50"
  Measured: "1 to 10 nM"
- Compound: "O=C1CCC(N2Cc3cc(-c4cc(CN5CCCC5)c5ccn(CCOCc6ccccc6)c5n4)ccc3C2=O)C(=O)N1 (stereo not drawn)"
  Property: "DC50"
  Measured: "1 to 10 nM"
- Compound: "O=C1CCC(N2Cc3cc(-c4cc(CN5CCCC5)c5c(C(F)(F)F)n[nH]c5n4)ccc3C2=O)C(=O)N1 (stereo not drawn)"
  Property: "DC50"
  Measured: "1 to 10 nM"
- Compound: "O=C1CCC(N2Cc3cc(-c4cc(CN5CC(O)C5)c5ccn(C6COC6)c5n4)ccc3C2=O)C(=O)N1 (stereo not drawn)"
  Property: "DC50"
  Measured: "10 to 100 nM"

Exam item: Give the measured DC50 of O=C1CCC(N2Cc3cc(-c4cc(CN5CCCC5)c5cn(C6COC6)nc5n4)ccc3C2=O)C(=O)N1 (stereo not drawn) .
Marked response: 1 to 10 nM

Exam item: Then what about the compound O=C1CCC(N2Cc3cc(-c4cc(CN5CCCC5)c5ccn(C6CC6)c5n4)ccc3C2=O)C(=O)N1 (stereo not drawn) ?
Marked response: < 1 nM

Exam item: Now try O=C1CCC(N2Cc3cc(-c4cc(CN5CCCC5)c5cnn(C6CCC6)c5n4)ccc3C2=O)C(=O)N1 (stereo not drawn) .
Marked response: 1 to 10 nM

Exam item: Would you kindly repeat that for O=C1CCC(N2Cc3cc(-c4cc(CN5CC(CO)C5)c5ccn(C6CC6)c5n4)ccc3C2=O)C(=O)N1 (stereo not drawn) ?
Marked response: 10 to 100 nM

Exam item: Again, but for CC(C)Nc1n[nH]c2c(CN3CCC4(CC3)COC4)cc(-c3ccc4c(c3F)CN(C3CCC(=O)NC3=O)C4=O)nc12 (stereo not drawn)
Marked response: 1 to 10 nM

Exam item: Now the compound Cn1ccc2nc(-c3ccc4c(c3)CN(C3CCC(=O)NC3=O)C4=O)cc(CN3CCCC3)c21 (stereo not drawn)
Marked response: < 1 nM

Exam item: Repeat with Cn1ccc2c(CN3CCCC3)nc(-c3ccc4c(c3)CN(C3CCC(=O)NC3=O)C4=O)nc21 (stereo not drawn)
Marked response: 1 to 10 nM

Exam item: Would you mind doing COc1cc2c(cc1-c1cc(CN3CCCC3)cc3cncn13)CN(C1CCC(=O)NC1=O)C2=O (stereo not drawn) as well?
Marked response: 1000 to 10000 nM

Exam item: Same read-out for Cn1ccc2c(CN3CC(O)C3)cc(-c3ccc4c(c3)CN(C3CCC(=O)NC3=O)C4=O)nc21 (stereo not drawn) ?
Marked response: 10 to 100 nM

Exam item: Lookup O=C1CCC(N2Cc3cc(-c4cc(CN5CCCC5CF)c5ccn(C6COC6)c5n4)ccc3C2=O)C(=O)N1 (stereo not drawn)
Marked response: 1 to 10 nM

Exam item: Repeat with Cn1ccc2c(N3CCCC3)cc(-c3ccc4c(c3)CN(C3CCC(=O)NC3=O)C4=O)nc21 (stereo not drawn)
Marked response: 10 to 100 nM

Exam item: Then this compound: CC(C)Nc1n[nH]c2c(CN3CCCC3)cc(-c3ccc4c(c3)CN(C35CC(C3)C(=O)NC5=O)C4=O)nc12
Marked response: < 1 nM

Exam item: Check CC(C)C1CN(Cc2cc(-c3ccc4c(c3)CN(C3CCC(=O)NC3=O)C4=O)nc3[nH]ccc23)CC1O (stereo not drawn) too.
Marked response: 1 to 10 nM

Exam item: // next record CCn1nc(N)c2nc(-c3ccc4c(c3)CN(C3CCC(=O)NC3=O)C4=O)cc(CN3CCCC3)c21 (stereo not drawn)
Marked response: 1 to 10 nM

Exam item: Now consider Cn1ccc2c(CN3CCCC3)cc(-c3cc4c(cc3Cl)C(=O)N(C3CCC(=O)NC3=O)C4)nc21 (stereo not drawn) and answer again.
Marked response: 1 to 10 nM

Exam item: Another compound to look at: COCCOc1ccnc2c(CN3CCCC3)cc(-c3ccc4c(c3)CN(C3CCC(=O)NC3=O)C4=O)nc12 (stereo not drawn)
Marked response: > 10000 nM

Exam item: Continue with Cc1cn(C2COC2)c2nc(-c3ccc4c(c3)CN(C3CCC(=O)NC3=O)C4=O)cc(CN3CCCC3)c12 (stereo not drawn)
Marked response: 1 to 10 nM

Exam item: What would you report for C[C@@H]1CC[C@@H](C)N1Cc1cc(-c2ccc3c(c2)CN(C2CCC(=O)NC2=O)C3=O)nc2c1ccn2C (stereo partly drawn) ?
Marked response: 1 to 10 nM

Exam item: What about CCn1ccc2c(CN3CCCC3)cc(-c3ccc4c(c3)CN(C3CCC(=O)NC3=O)C4=O)nc21 (stereo not drawn) ?
Marked response: 1 to 10 nM
